Source of measurements: patent US20160114035A1

Target: DRB1*1101
Assay: binding to purified HLA
EXPERIMENTAL READOUT: pIC50
Scale for pIC50: -log10 of concentration given in mol/L; no unit attached.

Prompt line: For the binder shown here, AAAKFVAAWTLKAAA [SEQ ID NO: 4] , give the reported pIC50.
Response line: 7.96

Prompt line: For the binder shown here, AAAFFVAANTLKADA [F4.N9.D14] , give the reported pIC50.
Response line: 7.34

Prompt line: For the binder shown here, AAAYFVAAFTLHAAA [Y4.F9.H12] , give the reported pIC50.
Response line: 7.77

Prompt line: For the binder shown here, AAAWFVAANTLHAAA [W4.N9.H12] , give the reported pIC50.
Response line: 7.80
